The entries below are paired with their reported Kd.
target.or.system: T1, PUF4 RNA-binding domain (Saccharomyces cerevisiae, UniProt P25339 537-888)
T1 sequence: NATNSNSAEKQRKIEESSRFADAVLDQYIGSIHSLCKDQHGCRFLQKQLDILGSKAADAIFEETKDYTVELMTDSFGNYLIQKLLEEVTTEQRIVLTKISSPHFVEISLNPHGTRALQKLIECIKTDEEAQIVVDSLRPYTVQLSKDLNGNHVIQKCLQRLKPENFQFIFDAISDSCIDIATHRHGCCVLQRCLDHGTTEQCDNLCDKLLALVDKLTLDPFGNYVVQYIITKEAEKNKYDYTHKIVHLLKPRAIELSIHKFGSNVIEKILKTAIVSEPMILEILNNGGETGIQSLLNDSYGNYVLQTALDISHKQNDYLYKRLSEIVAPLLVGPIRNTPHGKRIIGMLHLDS
assay.name: Mg; RNA-MaP; 20 mM Na-HEPES pH 7.4, 30 mM KOAc, 0.75 mM MgCl2, 0.1% Tween-20, 5% glycerol, 0.1 mg/mL BSA, 2 mM DTT; 25 C; 0.0125-409.6 nM protein
reported.conditions: tags: N-His6-TEV cleaved; C-SNAP kept, Cy3B-labelled; label: tethered on chip by stalled RNA polymerase

- binder: "UCUCUUUUUGUAUAUUACCUCUCUU (ssRNA) [Id_ii_S1_P4E.2_K4.1_C4.2_[C-2T]_H4.1_A4.1_F4.1_T4.2_[G10C]_[T11C]]"
  unit.tag: "nM"
  value.prefix: "="
  Kd: 1.09
- binder: "Ie_S2_P4E.1_K4.1_C4.1_H4.1_[+2CTCTC]_A4.1_F4.1_T4.1 (ssRNA) RNA: UUUGAUUAAUAUGAUAUCGUUCUUUCUUGCUCUCUAUAUUAUUCUUUCUCGAUAUCAUAUUAAUCUUU"
  unit.tag: "nM"
  value.prefix: "="
  Kd: 101
- binder: "Ib_S4_P4E.1_K4.1_C4.1_H4.1_[T3C]_A4.1_F4.1_[A9C]_T4.1 (ssRNA) RNA: UUUGACAACUGAUCGUUCUUUCUUGCAUAUUCUUCUUUCUCGAUCAGUUGUCUUU"
  unit.tag: "nM"
  value.prefix: ">"
  Kd: 2300
- binder: "UCUCUUCUUGUAUAUACUCUAUCUCUU (ssRNA) [Ie_S1_P3E.2_K3.1_C3.2_H3.1_A3.1_F3.1_[+8CTC]_T3.2]"
  unit.tag: "nM"
  value.prefix: "="
  Kd: 11.7
- binder: "Ib_S4_P4E.1_K4.1_C4.1_H4.1_A4.1_F4.1_[T8C]_[A9G]_T4.1 (ssRNA) RNA: UUUGACAACUGAUCGUUCUUUCUUGUAUAUCGUUCUUUCUCGAUCAGUUGUCUUU"
  unit.tag: "nM"
  value.prefix: "="
  Kd: 17.1
- binder: "Id_i_S4_P3E.6_K3.2_C3.3_[T-3A]_[C-2G]_[T-1C]_H3.2_A3.1_F3.1_T3.2 (ssRNA) RNA: UUUGACAACUGAUCGUUCUUUCUAGCUAUAUAUAUAUUCUUUCUCGAUCAGUUGUCUUU"
  unit.tag: "nM"
  value.prefix: "="
  Kd: 537
- binder: "UCUCUUUGUAAUCGUCUCUU (ssRNA) [Ic_S1_P3E.1_K3.1_C3.1_H3.1_A3.1_[T5A]_[A6T]_F3.1_[T7C]_[A8G]_T3.1]"
  unit.tag: "nM"
  value.prefix: "="
  Kd: 867
